All figures here come from patent US20190185479A1.

- study_target: Human PDE7B (hPDE7B) (Homo sapiens)
- Sequence (Q9NP56 whole entry): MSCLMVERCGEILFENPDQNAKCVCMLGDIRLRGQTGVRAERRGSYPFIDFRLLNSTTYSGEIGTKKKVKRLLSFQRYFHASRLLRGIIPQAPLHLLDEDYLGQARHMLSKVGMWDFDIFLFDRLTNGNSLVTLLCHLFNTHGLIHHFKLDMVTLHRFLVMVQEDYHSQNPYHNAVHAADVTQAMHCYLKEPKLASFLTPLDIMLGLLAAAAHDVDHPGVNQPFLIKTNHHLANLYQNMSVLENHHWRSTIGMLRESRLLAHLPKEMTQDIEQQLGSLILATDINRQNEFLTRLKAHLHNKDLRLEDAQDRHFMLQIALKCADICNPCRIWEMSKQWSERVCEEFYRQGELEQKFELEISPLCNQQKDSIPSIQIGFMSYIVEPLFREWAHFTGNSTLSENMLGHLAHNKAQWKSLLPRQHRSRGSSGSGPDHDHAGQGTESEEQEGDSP
pIC50: −log10 of the molar value.
Everything with pIC50 lower than 7 is -1; everything else, including exactly 7, is 1.

Example entries begin here.
INSERT INTO assay_data (compound, label_class) VALUES
  ('CC1(C)CCCCN1c1nnc2c(N)nccn12 [Example 36]', -1),
  ('Nc1ncnn2c(C3CCCC(C(F)(F)F)C3)nnc12 (single isomer, unassigned) [Example 244]', 1),
  ('CC1CCCCC1n1nnc2c(N)ncnc21 (single isomer, unassigned) [Example 191]', 1),
  ('CC1CCCCC1n1nnc2c(N)ncnc21 (single isomer, unassigned) [Example 193]', -1),
  ('Nc1ncnc2c1cnn2C1CCCCC1 [Example 181]', -1),
  ('CCC1CCCCN1c1nnc2c(N)nccn12 (single isomer, unassigned) [Example 223]', -1);

Please tell me: is the compound Nc1nccn2c(C3[C@H]4CCCC[C@@H]34)nnc12 (stereo partly drawn) [Example 164] at or over 7 in terms of pIC50? 1

Please tell me: is the compound C[C@@H]1CCC[C@@H](C)N1c1nnc2c(N)nccn12 [Example 63] at or over 7 in terms of pIC50? -1

---

- study_target: hPDE10A (Homo sapiens, UniProt Q9Y233)
- Sequence (Q9Y233 290-1055 limits assumed): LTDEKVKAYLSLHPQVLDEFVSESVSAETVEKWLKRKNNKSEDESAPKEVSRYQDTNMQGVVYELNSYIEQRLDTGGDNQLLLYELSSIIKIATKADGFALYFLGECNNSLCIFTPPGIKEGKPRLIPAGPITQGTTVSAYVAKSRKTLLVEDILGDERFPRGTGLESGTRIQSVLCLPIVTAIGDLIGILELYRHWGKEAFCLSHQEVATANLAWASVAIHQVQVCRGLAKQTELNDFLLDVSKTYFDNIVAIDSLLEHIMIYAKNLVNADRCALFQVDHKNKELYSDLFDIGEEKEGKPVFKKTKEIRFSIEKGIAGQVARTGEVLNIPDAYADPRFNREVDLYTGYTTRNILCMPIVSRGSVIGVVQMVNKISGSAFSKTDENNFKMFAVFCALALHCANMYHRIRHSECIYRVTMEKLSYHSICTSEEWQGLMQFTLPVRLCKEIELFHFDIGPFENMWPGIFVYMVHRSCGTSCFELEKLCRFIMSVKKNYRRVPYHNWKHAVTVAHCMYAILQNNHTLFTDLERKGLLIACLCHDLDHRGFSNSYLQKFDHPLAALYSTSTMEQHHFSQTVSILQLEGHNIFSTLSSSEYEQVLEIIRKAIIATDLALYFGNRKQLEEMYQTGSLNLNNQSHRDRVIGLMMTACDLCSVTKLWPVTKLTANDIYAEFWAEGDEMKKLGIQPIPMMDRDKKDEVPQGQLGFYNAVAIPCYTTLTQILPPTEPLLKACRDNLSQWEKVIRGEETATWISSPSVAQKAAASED
Range-based classes on measured IC50: band 1 = under 5 µM, band 2 = from 5 µM up to 20 µM, band 3 = 20 µM and over

Which IC50 category applies to CC1CCC(F)(F)CC1c1nnc2c(N)nccn12 (single isomer, unassigned) here? band 1

Which IC50 category applies to CC(C)(C)OC(=O)N1CCCCC1c1nnc2c(N)nccn12 (stereo not drawn) here? band 3

Which IC50 category applies to CC1CCN(c2nnc3c(N)nccn23)CC1C (single isomer, unassigned) [Example 231] here? band 1

Which IC50 category applies to Nc1ncnc2c1nnn2C1CCCC(C(F)F)C1 (single isomer, unassigned) here? band 2

Which IC50 category applies to C[C@@H]1CCCCN1c1nnc2c(N)nccn12 here? band 2

Which IC50 category applies to CC1(C)CCCN(c2nnc3c(N)ncc(C#N)n23)C1 here? band 2

Which IC50 category applies to Nc1ncnn2c(C3CCCC(C(F)(F)F)C3)nnc12 (single isomer, unassigned) here? band 3

Which IC50 category applies to Cc1nn(C2CCCCC2)c2ncnc(N)c12 here? band 1

Which IC50 category applies to CC1CCCC(c2nnc3c(N)ncnn23)C1 (single isomer, unassigned) [Example 72] here? band 2

---

- study_target: hPDE10A (Homo sapiens)
readout: Ki (µM)
Numbers only here, please. The scale is µM.

Field request: Ki | item: Nc1ncnc2c1nnn2C1CCCCC1 12

---

Attribute: IC50
- study_target: hPDE8B (Homo sapiens, UniProt O95263)
- Sequence (O95263 whole entry): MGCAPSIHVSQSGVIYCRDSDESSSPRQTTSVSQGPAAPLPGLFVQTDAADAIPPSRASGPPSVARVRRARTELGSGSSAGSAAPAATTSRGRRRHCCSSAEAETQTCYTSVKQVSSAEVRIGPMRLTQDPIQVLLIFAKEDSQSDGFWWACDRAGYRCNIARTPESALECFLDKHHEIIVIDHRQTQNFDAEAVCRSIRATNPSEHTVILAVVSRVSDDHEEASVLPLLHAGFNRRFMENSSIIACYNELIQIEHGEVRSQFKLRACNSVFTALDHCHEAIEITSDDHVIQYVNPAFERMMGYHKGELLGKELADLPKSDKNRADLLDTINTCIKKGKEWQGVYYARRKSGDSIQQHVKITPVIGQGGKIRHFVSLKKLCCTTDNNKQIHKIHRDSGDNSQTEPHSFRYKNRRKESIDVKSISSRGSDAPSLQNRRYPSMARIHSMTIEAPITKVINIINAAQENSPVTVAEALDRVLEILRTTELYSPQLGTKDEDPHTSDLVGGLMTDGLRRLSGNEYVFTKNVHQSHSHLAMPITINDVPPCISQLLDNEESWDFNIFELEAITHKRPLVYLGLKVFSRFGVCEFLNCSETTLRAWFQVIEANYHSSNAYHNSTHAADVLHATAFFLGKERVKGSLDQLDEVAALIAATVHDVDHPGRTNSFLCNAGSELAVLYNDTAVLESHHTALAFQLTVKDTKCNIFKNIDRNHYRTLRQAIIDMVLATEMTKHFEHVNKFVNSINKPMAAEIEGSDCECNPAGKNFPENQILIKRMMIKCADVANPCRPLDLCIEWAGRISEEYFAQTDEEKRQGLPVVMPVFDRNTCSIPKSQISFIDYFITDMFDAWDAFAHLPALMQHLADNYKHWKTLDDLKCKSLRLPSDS
Numbers only here, please. The scale is µM.

# count of solved cases: 8
INSERT INTO results (molecule, readout, result_unit, measurement) VALUES
  ('CC1CCC(C)N(c2nnc3c(N)ncc(C#N)n23)C1 (single isomer, unassigned)', 'IC50', 'µM', 2.7),
  ('CC1(C)CCCN(c2nnc3c(N)ncc(Cl)n23)C1', 'IC50', 'µM', 1.51),
  ('Nc1ncnc2c1nnn2C1CCC(F)(F)CC1', 'IC50', 'µM', 2.06),
  ('C[C@@H]1CCCCN1c1nnc2c(N)nccn12', 'IC50', 'µM', 5.8),
  ('Nc1ncnn2c(C3CCCCC3)nnc12', 'IC50', 'µM', 0.5),
  ('CC1CCC(F)(F)CC1c1nnc2c(N)nccn12 (single isomer, unassigned) [Example 175]', 'IC50', 'µM', 19.5),
  ('Cc1cnc(N)c2nnc(N3CCCC(C)(C)C3)n12', 'IC50', 'µM', 3),
  ('Cc1cnc(N)c2nnc(C3CCCCC3)n12', 'IC50', 'µM', 2.95);

Field request: IC50 | item: CC1(C)CCCN(c2nnc3c(N)ncc(C4CC4)n23)C1 1.52

Field request: IC50 | item: CC1CCCCC1n1nnc2c(N)ncnc21 (single isomer, unassigned) 5.33
